- System: RXF 393 renal
- METHOD_NOTES: NCI tumour cell line growth inhibition, 48 h

MOLECULE	TARGET_SYSTEM	UNIT_ANNOTATION	LIMIT_SIGN	TGI
O=C1OC(c2ccccc2)=NC1c1ccccc1 (stereo not drawn)	RXF 393 renal	µM	>	100
COc1cc2oc(-c3cccc(C(=O)Nc4ccc(Cl)cc4)c3)cc(=O)c2c(OC)c1OC	RXF 393 renal	µM	=	5.09
O=C1CN(c2ccccc2)Cc2nc(Cl)ccc2N1	RXF 393 renal	µM	>	100
CCCn1c2c(c3ccccc3c1=O)C(=O)c1ccccc1-2	RXF 393 renal	µM	>	100
C#Cc1cccc(Nc2ncnc3cc(NC(=O)CCl)ccc23)c1	RXF 393 renal	µM	=	7.78
CC(C)(C)OC(=O)NC1CCCC1C(=O)C1=CCCC1 (stereo not drawn)	RXF 393 renal	µM	>	100
COc1ccc2nc3cc(Cl)ccc3c(NCCCNCCO)c2c1	RXF 393 renal	µM	=	2.22
COc1cc2cc(Oc3ccc(NC(=O)Nc4cc(C(F)(F)F)cc(C(F)(F)F)c4)cc3)c(C)nc2cc1OCCN1CCOCC1	RXF 393 renal	µM	=	2.99
Cc1cc(=O)oc2ccc(OC/C=C3\CCC(=O)O3)cc12	RXF 393 renal	µM	=	21.3
COC1(CC[C@@H](C)COC2OC(CO)C(O)C(O)C2O)O[C@H]2C[C@H]3[C@@H]4CC=C5C[C@@H](OC6OC(CO)C(OC7OC(C)C(O)C(O)C7O)C(O)C6OC6OC(C)C(O)C(O)C6O)CC[C@]5(C)[C@H]4CC[C@]3(C)[C@H]2[C@@H]1C (stereo partly drawn)	RXF 393 renal	µM	=	5.45
CCCCOCCOCCOC1=CC(=O)c2c(O)ccc(O)c2C1=O	RXF 393 renal	µM	=	3.63
FC(F)(F)c1ccc2c(c1)N(CCCNCCN1CCOCC1)c1ccccc1S2	RXF 393 renal	µM	=	9.11
N#CCCn1[nH]c(=O)c(Cl)c(Cl)c1=O	RXF 393 renal	µM	=	32.2
CCNC(=O)C(C)C1CCC2(C)C=CC(=O)C(C)=C2C1O (stereo not drawn)	RXF 393 renal	µM	>	100
COc1ccccc1/C=C(/C)[N+](=O)[O-]	RXF 393 renal	µM	=	4.74
COc1ccc(/C=c2\c(=O)[nH]c3nc4ccccc4c(=O)n23)cc1	RXF 393 renal	µM	>	100
COC(=O)C(=O)Cc1nc2ccccc2s1	RXF 393 renal	µM	>	100
c1ccc(-c2oc(-c3ccccc3)c(CN3CCCCC3)c2CN2CCCCC2)cc1	RXF 393 renal	µM	=	5.74
O=C1CCN2c3ccccc3[C@H]3Cc4cccc(c4[C@@H]2C3)CCO1	RXF 393 renal	µM	>	100
O=[N+]([O-])C(=C/c1ccccc1)/C(=C\c1ccccc1)[N+](=O)[O-]	RXF 393 renal	µM	=	33.5
Clc1ccc(Cl)c(N=Nc2cc3c4c(c2)CCN4CCC3)c1	RXF 393 renal	µM	>	10
CC(C)=CCc1cc2c(cc1O)C1=C(C(=O)C3=C(C1=O)S(=O)(=O)CCN3)C(C=C(C)C)O2 (stereo not drawn)	RXF 393 renal	µM	=	2.26
CC(C)(C)N=CN1C=Cc2nc3ccccc3cc2C1	RXF 393 renal	µM	>	100
